tested on: A549/ATCC; assay: NCI-60 single-dose screen; type: cell-based; details: Homo sapiens, single dose 10 µM, '-' = no inhibition, read-out: % Growth Inhibition
This section presents molecules with their documented inhibition at 10 µM values.
reported-metric: inhibition at 10 µM (%)

[[record]]
molecule = "COc1ccc(CSc2nc(-c3ccc(Cl)cc3)cc(-c3ccc(OC)cc3)n2)cc1 [Compound 15]"
reported_metric = "inhibition at 10 µM"
relation_sign = "<"
value = 0

[[record]]
molecule = "COc1ccc(-c2cc(-c3ccc(Cl)cc3)nc(SCc3ccccc3)n2)cc1 [Compound 14]"
reported_metric = "inhibition at 10 µM"
relation_sign = "="
value = 2.08

[[record]]
molecule = "COc1ccc(-c2cc(-c3ccc(Cl)cc3)nc(SC)n2)cc1 [Compound 9]"
reported_metric = "inhibition at 10 µM"
relation_sign = "="
value = 7.56

[[record]]
molecule = "COc1ccc(-c2cc(-c3ccc(Cl)cc3)nc(SC(C)C)n2)cc1OC [Compound 26]"
reported_metric = "inhibition at 10 µM"
relation_sign = "="
value = 0.02

[[record]]
molecule = "CCSc1nc(-c2ccc(Cl)cc2)cc(-c2ccc(OC)cc2)n1 [Compound 10]"
reported_metric = "inhibition at 10 µM"
relation_sign = "="
value = 11.2

[[record]]
molecule = "COc1ccc(-c2cc(-c3ccc(Cl)cc3)nc(SC)n2)cc1OC [Compound 23]"
reported_metric = "inhibition at 10 µM"
relation_sign = "="
value = 19.8

[[record]]
molecule = "C=CCSc1nc(-c2ccc(OC)cc2)cc(-c2cccc(OC)c2)n1 [Compound 20]"
reported_metric = "inhibition at 10 µM"
relation_sign = "="
value = 1.93

[[record]]
molecule = "C=CCSc1nc(-c2ccc(Cl)cc2)cc(-c2ccc(OC)cc2)n1 [Compound 13]"
reported_metric = "inhibition at 10 µM"
relation_sign = "<"
value = 0

[[record]]
molecule = "COc1ccc(-c2cc(-c3ccc(Cl)cc3)nc(SC(C)C)n2)cc1 [Compound 12]"
reported_metric = "inhibition at 10 µM"
relation_sign = "="
value = 15.9

[[record]]
molecule = "CCSc1nc(-c2ccc(OC)cc2)cc(-c2cccc(OC)c2)n1 [Compound 17]"
reported_metric = "inhibition at 10 µM"
relation_sign = "="
value = 0.61


###

System: SW-620
Assay: NCI-60 single-dose screen
Type: cell-based
Details: Homo sapiens, single dose 10 µM, '-' = no inhibition, read-out: % Growth Inhibition
Experimental: The National Cancer Institute’s Developmental Therapeutic Program (www.dtp.nci.nih.gov) has tested compounds 9–29 (except compounds 21 and 22) against 60 cancer cell lines from nine types (leukemia, lung, colon, CNS, melanoma, ovarian, renal, prostate, and breast cancer) at a single dose (10 μM) ([El-Sherief et al., 2018]). […]
The entries below come with measured inhibition at 10 µM values attached.
reported-metric: inhibition at 10 µM

[[record]]
smiles_string = "COc1ccc(CSc2nc(-c3ccc(Cl)cc3)cc(-c3ccc(OC)cc3)n2)cc1"
assayed_target = "SW-620"
reported_metric = "inhibition at 10 µM"
value = "< 0%"

[[record]]
smiles_string = "CCCSc1nc(-c2ccc(OC)cc2)cc(-c2cccc(OC)c2)n1"
assayed_target = "SW-620"
reported_metric = "inhibition at 10 µM"
value = "< 0%"

[[record]]
smiles_string = "CCSc1nc(-c2ccc(Cl)cc2)cc(-c2ccc(OC)cc2)n1"
assayed_target = "SW-620"
reported_metric = "inhibition at 10 µM"
value = "< 0%"

